Reference source: ChEMBL document CHEMBL5042519

System: MCF7
Assay: Antiproliferative activity against human MCF7/ADR cells assessed as reduction in cell viability after 48 hrs by MTT assay
Format: functional, cell-based
Conditions: MCF7, 48 h
experimental-endpoint: IC50 (nM)
State just the number; it will be interpreted in nM.

Provide measured IC50 value, entry: `CCCCCCOC(=O)/C=C/[C@H](C)[C@H]1CC[C@]2(C)C[C@@H]3C(C)=CC(=O)[C@H]3/C(C=O)=C\C[C@@H]12`
1630

Give the reported IC50 for this molecule. `CCCCCCCOC(=O)/C=C/[C@H](C)[C@H]1CC[C@]2(C)C[C@@H]3C(C)=CC(=O)[C@H]3/C(C=O)=C\C[C@@H]12`
1280

Name the recorded IC50 of the molecule listed here: `COCCOCCOCCOC(=O)/C=C/[C@H](C)[C@H]1CC[C@]2(C)C[C@@H]3C(C)=CC(=O)[C@H]3/C(C=O)=C\C[C@@H]12`
2260

For the molecule `CCCCCCCCCOC(=O)/C=C\C=C/[C@H](C)[C@H]1CC[C@]2(C)C[C@@H]3C(C)=CC(=O)[C@H]3/C(C=O)=C\C[C@@H]12` , give its measured IC50 value.
1120

Respond only with IC50 recorded for `COCCOCCOCCOC(=O)/C=C\C=C/[C@H](C)[C@H]1CC[C@]2(C)C[C@@H]3C(C)=CC(=O)[C@H]3/C(C=O)=C\C[C@@H]12`
3260

Give the reported value of IC50 for this record: `CC1=CC(=O)[C@H]2/C(C=O)=C\C[C@H]3[C@@H]([C@@H](C)/C=C/C(=O)OCCOCCOC(=O)CC45CC6CC(CC(C6)C4)C5)CC[C@]3(C)C[C@H]12`
1110

---

Test: Antiproliferative activity against human MCF-10A cells assessed as reduction in cell viability after 48 hrs by MTT assay
Type: toxicity, cell-based
Where a name gives a salt, the structure may show the parent alone.
Output met for records whose IC50 at 48 h is lower than 2000 nM, not met for records at or above 2000 nM.

Would you kindly verify if IC50 at 48 h of `CC1=CC(=O)[C@H]2/C(C=O)=C\C[C@H]3[C@@H]([C@@H](C)/C=C\C=C/C(=O)OCCOCCOCCOC(=O)CC45CC6CC(CC(C6)C4)C5)CC[C@]3(C)C[C@H]12` is strictly less than 2000 nM?
not met

Given the entry COc1cccc2c1C(=O)c1c(O)c3c(c(O)c1C2=O)C[C@@](O)(C(=O)CO)C[C@@H]3O[C@H]1C[C@H](N)[C@H](O)[C@H](C)O1 [DOXORUBICIN HYDROCHLORIDE] , would its reported IC50 at 48 h be below 2000 nM?
met

In the record for `CCCCCCOC(=O)/C=C\C=C/[C@H](C)[C@H]1CC[C@]2(C)C[C@@H]3C(C)=CC(=O)[C@H]3/C(C=O)=C\C[C@@H]12` , is IC50 at 48 h less than 2000 nM?
met

Please indicate whether the reported IC50 at 48 h of `CC1=CC(=O)[C@H]2/C(C=O)=C\C[C@H]3[C@@H]([C@@H](C)/C=C\C=C/C(=O)OCCOCCOC(=O)CC45CC6CC(CC(C6)C4)C5)CC[C@]3(C)C[C@H]12` is strictly below 2000 nM.
not met

Check if IC50 at 48 h falls below 2000 nM for `CCCCCCCCCCOC(=O)/C=C/[C@H](C)[C@H]1CC[C@]2(C)C[C@@H]3C(C)=CC(=O)[C@H]3/C(C=O)=C\C[C@@H]12` .
not met

---

Tested on: MCF7
Assay: Antiproliferative activity against human MCF7/ADR cells assessed as reduction in cell viability after 48 hrs by MTT assay
Format: functional, cell-based
Details: MCF7, 48 h
experimental-endpoint: IC50 (µM)
Report only the number, with the unit µM understood.

Provide measured IC50 on MCF7 for `CC1=CC(=O)[C@H]2/C(C=O)=C\C[C@H]3[C@@H]([C@@H](C)/C=C\C=C/C(=O)OCCCCCCCCOC(=O)CC45CC6CC(CC(C6)C4)C5)CC[C@]3(C)C[C@H]12` please.
1.49

Write IC50 of `CCCCCCCOC(=O)/C=C\C=C/[C@H](C)[C@H]1CC[C@]2(C)C[C@@H]3C(C)=CC(=O)[C@H]3/C(C=O)=C\C[C@@H]12` ; system used: MCF7
0.94

Please look at `CCCCCCCCCCOC(=O)/C=C\C=C/[C@H](C)[C@H]1CC[C@]2(C)C[C@@H]3C(C)=CC(=O)[C@H]3/C(C=O)=C\C[C@@H]12` and tell me its recorded IC50 on MCF7.
1.26

Please respond with reported IC50 (system MCF7) for `CCCCCCOC(=O)/C=C\C=C/[C@H](C)[C@H]1CC[C@]2(C)C[C@@H]3C(C)=CC(=O)[C@H]3/C(C=O)=C\C[C@@H]12` .
0.79

Write down the reported IC50 (system: MCF7) of `CC1=CC(=O)[C@H]2/C(C=O)=C\C[C@H]3[C@@H]([C@@H](C)/C=C/C(=O)OC45CC6CC(CC(C6)C4)C5)CC[C@]3(C)C[C@H]12`
0.61

Answer with IC50 of `CC1=CC(=O)[C@H]2/C(C=O)=C\C[C@H]3[C@@H]([C@@H](C)/C=C\C=C/C(=O)OCCOCCOC(=O)CC45CC6CC(CC(C6)C4)C5)CC[C@]3(C)C[C@H]12` measured for MCF7.
0.87

Look up and report IC50, with MCF7 as system, for `CCCCCOC(=O)/C=C/[C@H](C)[C@H]1CC[C@]2(C)C[C@@H]3C(C)=CC(=O)[C@H]3/C(C=O)=C\C[C@@H]12`
1.98

Quote MCF7 IC50 for entry `CC1=CC(=O)[C@H]2/C(C=O)=C\C[C@H]3[C@@H]([C@@H](C)/C=C/C(=O)OCCCCCCCCOC(=O)CC45CC6CC(CC(C6)C4)C5)CC[C@]3(C)C[C@H]12` .
1.91

For MCF7, give IC50 of the listed compound: `CC1=CC(=O)[C@H]2/C(C=O)=C\C[C@H]3[C@@H]([C@@H](C)/C=C\C=C/C(=O)OCCCOC(=O)CC45CC6CC(CC(C6)C4)C5)CC[C@]3(C)C[C@H]12`
0.96

Fill: IC50 (MCF7) for this compound `CC1=CC(=O)[C@H]2/C(C=O)=C\C[C@H]3[C@@H]([C@@H](C)/C=C\C=C/C(=O)OCCOCCOCCOC(=O)CC45CC6CC(CC(C6)C4)C5)CC[C@]3(C)C[C@H]12`
0.48

Please respond with reported IC50 (system MCF7) for `CCCCCCCCCOC(=O)/C=C/[C@H](C)[C@H]1CC[C@]2(C)C[C@@H]3C(C)=CC(=O)[C@H]3/C(C=O)=C\C[C@@H]12` .
0.73

Consider the compound `CCCCCCCCOC(=O)/C=C/[C@H](C)[C@H]1CC[C@]2(C)C[C@@H]3C(C)=CC(=O)[C@H]3/C(C=O)=C\C[C@@H]12` tested on MCF7; state its IC50.
0.52

Determine reported IC50 for `CCCCOC(=O)/C=C\C=C/[C@H](C)[C@H]1CC[C@]2(C)C[C@@H]3C(C)=CC(=O)[C@H]3/C(C=O)=C\C[C@@H]12` ; test system: MCF7.
1.86

Give the observed IC50 of `CC1=CC(=O)[C@H]2/C(C=O)=C\C[C@H]3[C@@H]([C@@H](C)/C=C\C=C/C(=O)OC45CC6CC(CC(C6)C4)C5)CC[C@]3(C)C[C@H]12` for MCF7.
1.04

For MCF7, give IC50 of the listed compound: `CC1=CC(=O)[C@H]2/C(C=O)=C\C[C@H]3[C@@H]([C@@H](C)/C=C/C(=O)OCCCOC(=O)CC45CC6CC(CC(C6)C4)C5)CC[C@]3(C)C[C@H]12`
0.7

Name the recorded IC50 of `CC1=CC(=O)[C@H]2/C(C=O)=C\C[C@H]3[C@@H]([C@@H](C)/C=C\C=C/C(=O)OCCOCCOCCOCCOC(=O)CC45CC6CC(CC(C6)C4)C5)CC[C@]3(C)C[C@H]12` , assay system MCF7.
2.03

Would you please give the reported IC50 of `CC1=CC(=O)[C@H]2/C(C=O)=C\C[C@H]3[C@@H]([C@@H](C)/C=C/C(=O)OCCOCCOCCOCCOC(=O)CC45CC6CC(CC(C6)C4)C5)CC[C@]3(C)C[C@H]12` with MCF7?
0.86

---

Assay: Metabolic stability in rat liver microsomes assessed as assessed as intrinsic clearance incubated for 60 mins in presence of NADPH by UPLC-MS analysis
Type: ADME, Microsome
Settings: read-out: CLH
experimental-endpoint: microsomal CLint (µL/min/mg)
Provide the reading as a plain figure in µL/min/mg.

Identify measured microsomal CLint corresponding to `CC1=CC(=O)[C@H]2/C(C=O)=C\C[C@H]3[C@@H]([C@@H](C)/C=C\C=C/C(=O)OCCOCCOCCOC(=O)CC45CC6CC(CC(C6)C4)C5)CC[C@]3(C)C[C@H]12`
17.8

For the compound `CC(C)=C/C=C\[C@H](C)[C@H]1CC[C@]2(C)C[C@@H]3C(C)=CC(=O)[C@H]3/C(C=O)=C\C[C@@H]12` , report microsomal CLint.
14.5
